Reported values of pKd for individual entries
Target: T1, GFP-9S library array, motif 4 ND N98Y;D124L (synthetic construct, N98Y;D124L)
T1 chain: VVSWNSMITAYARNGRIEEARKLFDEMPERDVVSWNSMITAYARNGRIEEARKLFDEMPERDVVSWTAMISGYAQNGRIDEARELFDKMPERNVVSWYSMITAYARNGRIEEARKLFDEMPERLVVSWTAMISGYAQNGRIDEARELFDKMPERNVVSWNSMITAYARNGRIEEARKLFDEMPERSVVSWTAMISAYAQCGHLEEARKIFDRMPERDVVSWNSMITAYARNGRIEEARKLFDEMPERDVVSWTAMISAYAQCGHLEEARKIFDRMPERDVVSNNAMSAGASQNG
Test: high-throughput RNA pulldown from lysate on Ni-NTA beads; HRP: 50 mM Tris pH 8, 150 mM NaCl, 1 mM beta-mercaptoethanol, 50 ug/ml BSA, 3 ug/ml yeast RNA, 0.5% heparin; ITC and FP: Tris pH 8, 200 mM KCl, 5% glycerol; MST: 50 mM Tris pH 8, 200 mM NaCl, 1 mM DTT, BSA, heparin, 0.05% Tween 20
Details: tags: N-terminal His-eGFP; label: 5' Cy5
pKd: −log10 of the molar value.
Test readout: pKd

[[record]]
binder = "AUUAGACGUGA (ssRNA) [Cy5-rpoA-G]"
test_readout = "pKd"
readout_number = 7.13

[[record]]
binder = "AUUACACGUGA (ssRNA) [Cy5-rpoA]"
test_readout = "pKd"
readout_number = 7.05

